SUBJECT OF TEST: Carbonic anhydrase 4 (Bos taurus)
ASSAY INFO: In vitro carbonic anhydrase IV activation in bovine lung microsomes.
EXPERIMENTAL PARAMETERS: Microsome
# KA listing for each entry below

- COMPOUND: "Cc1ccccc1S(=O)(=O)NC(=O)N[C@@H](CCCN=C(N)N)C(=O)NCCC(=O)N[C@@H](Cc1c[nH]cn1)C(=O)O"
  KA, µM: 0.7
- COMPOUND: "CC[C@H](C)[C@@H](NC(=O)NS(=O)(=O)c1ccccc1C)C(=O)NCCC(=O)NC(Cc1c[nH]cn1)C(=O)O (some centres undefined)"
  KA, µM: 3.1
- COMPOUND: "O=C(CCNC(=O)C1CCCN(C(=O)NS(=O)(=O)c2ccc(F)cc2)C1)NC(Cc1c[nH]cn1)C(=O)O (centres undefined)"
  KA, µM: 2.4
- COMPOUND: "Cc1ccccc1S(=O)(=O)NC(=O)N1CCCC1C(=O)NCC(=O)NCCC(=O)NC(Cc1c[nH]cn1)C(=O)O (centres undefined)"
  KA, µM: 0.01
